target-or-system: human DGKζ (Homo sapiens)
Construct: TVMV protease cleavage site (C); Hexa-His (C); made in house; host or cells: Sf9 insect cells (baculovirus, Bac-to-Bac)
Sequence (Q13574 with tags, fused parts or gaps isoform Q13574-4): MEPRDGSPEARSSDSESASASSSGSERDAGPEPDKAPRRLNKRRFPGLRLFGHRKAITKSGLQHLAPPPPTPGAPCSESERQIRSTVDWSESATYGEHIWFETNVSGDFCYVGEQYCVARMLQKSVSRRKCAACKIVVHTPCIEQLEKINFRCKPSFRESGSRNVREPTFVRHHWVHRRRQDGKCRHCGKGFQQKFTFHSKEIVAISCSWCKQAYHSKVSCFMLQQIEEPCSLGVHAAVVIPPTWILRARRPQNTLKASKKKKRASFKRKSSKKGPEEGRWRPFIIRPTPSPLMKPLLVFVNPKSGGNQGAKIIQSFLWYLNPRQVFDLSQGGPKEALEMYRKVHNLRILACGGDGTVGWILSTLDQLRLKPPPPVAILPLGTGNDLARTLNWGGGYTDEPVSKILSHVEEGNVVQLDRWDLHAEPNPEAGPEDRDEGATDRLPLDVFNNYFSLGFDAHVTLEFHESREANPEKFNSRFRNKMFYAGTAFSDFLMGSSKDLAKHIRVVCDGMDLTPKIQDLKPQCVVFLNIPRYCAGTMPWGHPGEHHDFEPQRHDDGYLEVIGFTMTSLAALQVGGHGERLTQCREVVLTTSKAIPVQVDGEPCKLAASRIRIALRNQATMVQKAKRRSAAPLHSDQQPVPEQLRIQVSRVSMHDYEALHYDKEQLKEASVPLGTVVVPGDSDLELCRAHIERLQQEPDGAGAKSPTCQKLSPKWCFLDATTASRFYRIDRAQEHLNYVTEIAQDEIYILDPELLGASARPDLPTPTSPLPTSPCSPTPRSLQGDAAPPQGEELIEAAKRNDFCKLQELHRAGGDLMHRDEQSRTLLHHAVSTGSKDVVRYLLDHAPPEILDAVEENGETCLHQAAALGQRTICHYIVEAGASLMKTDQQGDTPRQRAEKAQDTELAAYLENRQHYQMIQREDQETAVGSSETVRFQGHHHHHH
assay-explanation: DGKζ LIPGLO assay (extruded liposome substrate), in vitro DGK inhibition
Type: biochemical
assay-conditions: liposome (LIPGLO) assay; read-out: DGKz LIPGLO IC50
endpoint-label: pIC50
pIC50 here: minus log base 10 of the concentration, concentration in moles per litre.

A selection of reference data follows.
# compound, target-or-system, endpoint-label, measured
rows = [
    ("C[C@@H]1CN(c2cc(=O)n(C)c3ccc(C#N)nc23)[C@@H](C)CN1Cc1ccc(OC(F)(F)F)c(Cl)c1 [Example 611]", "human DGKζ (Homo sapiens)", "pIC50", 4.68),
    ("CC(c1ccc(C#N)c(OCCN(C)C)c1)N1C[C@H](C)N(c2cc(=O)n(C)c3ccc(C#N)nc23)C[C@H]1C (single isomer, unassigned) [Example 1322]", "human DGKζ (Homo sapiens)", "pIC50", 4.28),
    ("C[C@@H]1CN(C(c2ccc(F)cc2)c2ccc(Cl)cc2)[C@@H](CO)CN1c1cc(=O)n(C)c2ccc(C#N)nc12 (stereo partly shown) [Example 1175]", "human DGKζ (Homo sapiens)", "pIC50", 6.00),
]

Ask: Would you mind telling me what pIC50 value was observed for C[C@@H]1CN(c2c(F)c(=O)n(C)c3ccc(C#N)nc23)[C@@H](C)CN1C(c1ccc(F)cc1)c1ccc(F)cc1 [Example 157] ?
Result: 6.42

Ask: Follow-up item: COc1cc(F)ccc1C(c1ccc(F)cc1)N1CCN(c2cc(=O)n(C)c3ccc(C#N)nc23)[C@@H](C)C1 (single isomer, unassigned) [Example 130]
Result: 6.02

Ask: Follow-up item: C[C@@H]1CN(c2cc(=O)n(C)c3ccc(C#N)nc23)[C@@H](C)CN1Cc1ccc(OC(F)(F)F)cc1Cl [Example 607]
Result: 5.12

Ask: Follow-up item: C[C@@H]1CN(C(c2ccc(F)cc2)c2ccc(F)cc2)[C@@H](CO)CN1c1cc(=O)n(C)c2ccc(C#N)nc12 [Example 1172]
Result: 5.49

Ask: Follow-up item: CC(C)[C@H]1CN(c2c(C#N)c(=O)n(C)c3ccc(C#N)nc23)CCN1C(c1ccc(F)cc1)c1ccc(F)cc1 [Example 12]
Result: 4.24

Ask: Follow-up item: C[C@@H]1CN(c2c(C#N)c(=O)n(C)c3ccc(C#N)nc23)CCN1C(c1ccc(F)cc1)c1ccnc(C(C)(C)C)n1 (stereo partly shown) [Example 321]
Result: 6.62

Ask: Follow-up item: C[C@@H]1CN(c2cc(=O)n(C)c3ccc(C#N)nc23)[C@@H](C)CN1C(c1ccccc1F)c1ccccc1F [Example 258]
Result: 6.09

Ask: Follow-up item: CC[C@@H]1CN(c2cc(=O)n(C)c3ccc(C#N)nc23)[C@@H](C)CN1Cc1ccc(C(F)(F)F)cc1C(F)(F)F [Example 1197]
Result: 5.80

Ask: Follow-up item: COC(=O)C1CN(C(c2ccc(F)cc2)c2ccc(F)cc2)CCN1c1c(Br)c(=O)n(C)c2ccc(C#N)nc12 (stereo not shown) [Example 162]
Result: 5.62

Ask: Follow-up item: C[C@@H]1CN(c2c(F)c(=O)n(C)c3ccc(C#N)nc23)[C@@H](C)CN1C(c1ccc(F)cc1)c1c(F)cccc1F (single isomer, unassigned) [Example 336]
Result: 6.64
